ASSAY_PROTOCOL: Half life in human (healthy individuals) at 270 mg, single oral dose
Format: ADME
TEST_CONTEXT: in vivo
TEST_READOUT: half-life

Fill in: half-life of Cc1cccnc1-c1ccc(-c2n[nH]c3ncc(-c4ccc5c(c4)CC[C@@H](N4C6COCC4C6)CC5)cc23)nc1 is ___
40 h

---

STUDY_TARGET: CYP1A2 (Homo sapiens)
Sequence (P05177 whole entry): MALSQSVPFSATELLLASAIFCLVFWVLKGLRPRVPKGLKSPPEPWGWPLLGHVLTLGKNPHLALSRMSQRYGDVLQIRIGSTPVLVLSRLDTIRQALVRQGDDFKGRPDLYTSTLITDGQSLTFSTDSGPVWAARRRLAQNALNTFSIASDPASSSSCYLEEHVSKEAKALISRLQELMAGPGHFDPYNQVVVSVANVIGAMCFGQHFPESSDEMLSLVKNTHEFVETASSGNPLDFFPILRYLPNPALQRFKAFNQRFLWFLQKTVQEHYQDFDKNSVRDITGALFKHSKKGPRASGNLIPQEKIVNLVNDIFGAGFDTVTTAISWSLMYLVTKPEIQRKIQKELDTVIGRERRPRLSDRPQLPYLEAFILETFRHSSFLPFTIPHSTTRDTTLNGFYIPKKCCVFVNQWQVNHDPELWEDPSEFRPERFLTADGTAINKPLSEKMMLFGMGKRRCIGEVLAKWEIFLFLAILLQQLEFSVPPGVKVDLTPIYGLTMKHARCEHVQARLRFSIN
ASSAY_PROTOCOL: Time dependent inhibition of CYP1A2 (unknown origin) at 30 uM measured after 30 mins relative to control
Assay type: ADME
TEST_CONTEXT: read-out: TDI
Would you mind telling me the reported inhibition at 0.5 h, 30 µM of each entry?
Answer with a number only, understood to be in %.

Fill in: inhibition at 0.5 h, 30 µM of Cc1cccnc1-c1ccc(-c2n[nH]c3ncc(-c4ccc5c(c4)CC[C@@H](N4C6COCC4C6)CC5)cc23)nc1 is ___
0

Fill in: inhibition at 0.5 h, 30 µM of Cc1cccnc1-c1ccc(-c2n[nH]c3ncc(-c4ccc5c(c4)CC[C@@H](N4C6COCC4C6)CC5)cc23)cc1 is ___
24

Fill in: inhibition at 0.5 h, 30 µM of Cc1cccnc1-c1ccc(-c2c[nH]c3ncc(-c4ccc5c(c4)CC[C@@H](N4C6COCC4C6)CC5)cc23)cc1 is ___
0

---

ASSAY_PROTOCOL: AUC (0 to 120 hrs) in human (healthy individuals) at 30 mg, single oral dose
Assay type: ADME
TEST_CONTEXT: in vivo
TEST_READOUT: AUC(0-t) (ng·h/mL)
Answer with a number only, understood to be in ng·h/mL.

Fill in: AUC(0-t) of Cc1cccnc1-c1ccc(-c2n[nH]c3ncc(-c4ccc5c(c4)CC[C@@H](N4C6COCC4C6)CC5)cc23)nc1 is ___
614

---

ASSAY_PROTOCOL: Clearance in cynomolgus monkey at 0.5 mg/kg, iv measured up to 24 hrs by LC-MS/MS analysis
Assay type: ADME, organism-based, Macaca fascicularis
TEST_CONTEXT: in vivo
TEST_READOUT: clearance (mL/min/kg)
Answer with a number only, understood to be in mL/min/kg.

Fill in: clearance of Cc1cccnc1-c1ccc(-c2c[nH]c3ncc(-c4ccc5c(c4)CC[C@@H](N4C6COCC4C6)CC5)cc23)cc1 is ___
4.67

Fill in: clearance of Cc1cccnc1-c1ccc(-c2n[nH]c3ncc(-c4ccc5c(c4)CC[C@@H](N4C6COCC4C6)CC5)cc23)cc1 is ___
6.83

Fill in: clearance of Cc1cccnc1-c1ccc(-c2n[nH]c3ncc(-c4ccc5c(c4)CC[C@@H](N4C6COCC4C6)CC5)cc23)nc1 is ___
12.7

---

ASSAY_PROTOCOL: AUCinfinity in Sprague-Dawley rat at 1 mg/kg, iv measured up to 8 hrs by LC-MS/MS analysis
Format: ADME, organism-based
TEST_CONTEXT: in vivo
TEST_READOUT: AUC(0-inf) (ng·h/mL)
Answer with a number only, understood to be in ng·h/mL.

Fill in: AUC(0-inf) of CN(C)C(=O)c1ccc(-c2n[nH]c3ncc(-c4ccc5c(c4)CC[C@@H](N4C6COCC4C6)CC5)cc23)cc1 is ___
6400
